Cited source for all entries: PubChem BioAssay (NCI)

Hi there, I'd appreciate the recorded GI50 for every entry that follows.
tested on: IGROV1 ovarian; experiment: NCI tumour cell line growth inhibition, 48 h

Query: Lab note: need GI50 for [N-]=[N+]=NCCCCCC(=O)OC(C(=O)c1ccccc1)c1cccc(OCC(=O)NCCOCCOCCNC(=O)CCCC[C@@H]2SC[C@@H]3NC(=O)N[C@@H]32)c1 (some centres undefined) on IGROV1 ovarian, anyone have it?
Response: > 100 µM

Query: Next compound up: C=C1CCC2C3(C)COC(c4ccccc4)OC3CCC2(C)C1/C=C/C1=CCOC1=O (centres undefined)
Response: 3.4 µM

Query: Try the compound "CC(C)=CCC[C@](C)(O)[C@H]1CC[C@]2(C)[C@@H]1CC[C@@H]1[C@@]3(C)CC/C(=N/O)C(C)(C)[C@@H]3CC[C@]12C"
Response: 20 µM

Query: Request: C[C@@]12CCC[C@@](C)(C(=O)O)C1CC[C@]13C[C@@](O)(CO)[C@](O)(CCC12)C3 (some centres undefined)
Response: > 100 µM

Query: And then "CS(=O)(=O)CCc1cccc(C(=O)c2cnn(-c3ccc(F)cc3)c2N)c1" , what is it?
Response: > 25 µM

Query: Try this compound too: "CCN(CC)CCCNCc1cc(-c2ccccc2)nc2ccccc12"
Response: 23.1 µM

Query: Try this compound too: "CC(C)=CCC/C(C)=C/CC/C(C)=C/CSc1ccccc1C(=O)O"
Response: 29.3 µM

Query: Queued: "Cc1nc2ccccc2c(/C=C/c2ccc(Cl)cc2)c1C(=O)/C=C/c1ccc(C(F)(F)F)cc1"
Response: 0.282 µM

Query: Again, but for "O=C(NCCCO)c1cc(Cl)ccc1O"
Response: 3.94 µM

* * *

tested on: MCF7 breast; assay: NCI tumour cell line growth inhibition, 48 h
quantityKind: TGI

Query: Would you kindly share the measured TGI for "O=Nc1ccc(NO)c2ccccc12" ?
Response: 31.3 µM

Query: Proceed to O=C1CSC(c2ccccc2[N+](=O)[O-])N1c1ccc(-c2ccc(-n3c(-c4ccccc4)nc4ccccc4c3=O)cc2)cc1 (stereo not drawn)
Response: > 100 µM

Query: Same question, N#Cc1c(-c2ccc(Cl)cc2)[nH]c(=O)n(C2OC(CO)C(O)C(O)C2O)c1=O (stereo not drawn) this time
Response: > 100 µM

Query: Repeat for the following compound: "CCOC(=O)C1(C(=O)OCC)OC(C)=NC1(C(=O)OC)C(=O)OC"
Response: > 100 µM

Query: Okay, and "O=C(Cc1ccc(F)c(F)c1)Nc1cc(C2(C(F)(F)F)CC2)nn1Cc1ccccc1" ?
Response: > 15 µM

Query: Please give the result for "COc1cc(C(=O)N2CCN(c3ncnc4ccccc34)CC2)c(N)cc1OCc1ccccc1" too.
Response: 22.7 µM

Query: And then "CC(=O)OC(C)(C)/C(C)=C/C(=O)O[C@H]1C(=O)O[C@@H]2C[C@H]3[C@H](C)C(=O)C(O[C@@H]4O[C@H](CO)[C@@H](O)[C@H](O)[C@H]4O)=C[C@]3(C)[C@H]3[C@@H](O)[C@H](O)[C@@]4(C(=O)O)OC[C@]32[C@@H]14" , what is it?
Response: > 100 µM

Query: Try the compound "O=C(CN1CCOCC1)c1ccc2c(c1)oc(=O)n2CCN1CCOCC1"
Response: > 100 µM

* * *

test system: NCI-H226 lung; assay: NCI tumour cell line growth inhibition, 48 h
quantityKind: GI50

Query: Fill in: GI50 of "Oc1ccc(-c2nc3ccccc3s2)cc1CN(Cc1ccccn1)Cc1ccccn1" is ___
Response: 210 nM

Query: And COc1cc(C2SCC(=O)N2c2ncc(C)s2)cc(OC)c1OC (stereo not given) ?
Response: > 50000 nM

Query: Here is the next compound: "Cn1c2c(c3ccc([N+](=O)[O-])cc3c1=O)C(=O)c1ccccc1-2"
Response: > 100000 nM

Query: Now this one: COc1cccc(NC(=O)c2sc3nc(C)c(C(O)c4ccccc4)cc3c2N)c1 (stereo not given)
Response: 2030 nM

Query: Cool, now "Cc1csc(/C=C/C(=O)c2nnn(-c3ccnc4c(C(F)(F)F)cccc34)c2C)c1"
Response: 53800 nM

Query: Subsequent entry: "NCCOCCOCCNc1nc(-c2ccccc2)nc(N2CCN(c3ccccn3)CC2)n1"
Response: 17100 nM

Query: Next: "c1ccc(CN2COc3c(ccc4c3OCN(Cc3ccccc3)C4)C2)cc1"
Response: 479 nM

Query: Similarly, "CCC/C(=N\NC(=S)N1CC2CCC(CC2)C1)c1ccccn1" ?
Response: 1130 nM

Query: Consider next the compound "CC(=O)c1c(C)[nH]c(-c2nc3ccc(N4CCN(C)CC4)cc3[nH]2)c1-c1ccc(N(C)C)cc1" in the same way.
Response: 1950 nM

Query: Next compound up: C[C@@]12CCC[C@@](C)(C(=O)O)C1CC[C@]13C[C@@](O)(CO)[C@](O)(CCC12)C3 (stereo not given in full)
Response: > 100000 nM

* * *

tested on: OVCAR-4 ovarian; test: NCI tumour cell line growth inhibition, 48 h
quantityKind: TGI

Query: Sample CC(=O)Nc1ccc2c3c(cc(O)c2c1)N(C(=O)CCCCCCC(=O)N1CC(CCl)c2c1cc(O)c1cc(NC(C)=O)ccc21)CC3CCl (stereo unspecified) — what was its TGI?
Response: > 100 µM

Query: What about this molecule? "CN(Cc1ccccc1)c1ccc(CO)c(Cl)c1"
Response: 43.6 µM

Query: "Cn1cnc([N+](=O)[O-])c1Sc1nccn1-c1cccc2ccccc12" ?
Response: 95.3 µM

Query: Next up: COC(=O)C(C(=O)C(=O)Nc1ccc([N+](=O)[O-])cc1[N+](=O)[O-])c1nc2ccc(Cl)cc2[nH]c1=O (stereo unspecified)
Response: > 100 µM

Query: Cool, now "NCCCC[C@H](N)C(=O)Nc1ccc(-c2nc3ccccc3s2)cc1"
Response: > 100 µM

Query: Entry "Oc1ccc2ccccc2c1N=Nc1ccsc1" please
Response: > 100 µM

Query: Likewise for Cn1c(=O)c2c(nc3n2CCCC(=O)N3CC(O)CCl)n(C)c1=O (stereo unspecified) ?
Response: > 100 µM

Query: Also "CC(=O)C1=C(O)C=C2Oc3c(C(=O)/C=C/c4c(Cl)cccc4Cl)c(O)c(C)c(O)c3[C@]2(C)C1=O" ?
Response: 11.3 µM

Query: Next: "CCOC(=O)C1(C(=O)OCC)OC(C)=NC1(C(=O)OC)C(=O)OC"
Response: > 100 µM

Query: How about this molecule: CC12CCC3(OCCO3)C(OC(=O)c3ccccc3)=C1CCC21OCCO1 (stereo unspecified)
Response: > 100 µM

Query: Then this molecule: CCN(CC)CC(O)CNc1c2ccc([N+](=O)[O-])cc2nc2cc(OC)c(OC)cc12 (stereo unspecified)
Response: 0.574 µM

Query: What do we get for "O=C(NCCCO)c1cc(Cl)ccc1O" ?
Response: 12.4 µM

Query: Next molecule: "C=CC(=O)Nc1cc(C)ccc1Nc1nc(Nc2cc(OC)ncc2C)ncc1C(F)(F)F"
Response: > 100 µM

Query: Can you handle "O=Nc1ccc(NO)c2ccccc12" next?
Response: 16.2 µM

Query: What do you get for "Cn1c2c(c3ccc([N+](=O)[O-])cc3c1=O)C(=O)c1ccccc1-2" ?
Response: > 100 µM

Query: Next entry: "CO/N=C(\C)c1ccc(Nc2cc(-c3ccccc3)nc3ccc(OC)cc23)cc1"
Response: > 100 µM

Query: Try this molecule next: "CCN(CC)CCCNCc1cc(-c2ccccc2)nc2ccccc12"
Response: > 100 µM

Query: Item: "COC(=O)c1ccc(N=NN(C)COc2ccc(Br)cc2)cc1"
Response: > 100 µM

Query: Continue with COC1C(O)C(n2ncc3c(SC)nc(SC)nc32)OC1C(O)CO (stereo unspecified)
Response: > 100 µM

Query: Follow-up entry: "S=C(Nc1ccc(-c2nc3ccccc3[nH]2)cc1)Nc1ccc(-c2nc3ccccc3[nH]2)cc1"
Response: > 100 µM

Query: Do the same for O=C(c1ccccc1)C(CN1CCCCC1)c1ccccc1 (stereo unspecified) please
Response: 4.52 µM

* * *

Provide the recorded GI50 for the entries that follow.
tested on: A498 renal; test: NCI tumour cell line growth inhibition, 48 h

Query: Entry "C#CCSc1cc(Cl)c(C)cc1S(=O)(=O)Nc1nc2ccccc2o1" : reported GI50 = ?
Response: 33.4 µM

Query: Next record, please: "Cc1nnc(-c2cccc(-c3ccc(C(=O)NCC4CC4)cc3)c2)o1"
Response: > 7.79 µM

Query: And the next one, "O=C(COc1cc(O)c2c(=O)cc(-c3ccccc3)oc2c1)Nc1ccccc1C(F)(F)F" ?
Response: 4.04 µM

Query: Also C[C@@]12CCC[C@@](C)(C(=O)O)C1CC[C@]13C[C@@](O)(CO)[C@](O)(CCC12)C3 (some centres not stated) , if possible.
Response: > 100 µM

Query: Repeat with "COc1cc(NCCCN=C(N)NC(N)=NC(C)C)c2ncccc2c1"
Response: 36.6 µM

Query: Also need "NCCOCCOCCNc1nc(-c2ccccc2)nc(N2CCN(c3ccccn3)CC2)n1" , thanks.
Response: 3.91 µM

Query: Now this one: "COc1cc(C(=O)N2CCN(c3ncnc4ccccc34)CC2)c(N)cc1OCc1ccccc1"
Response: 5.47 µM
